Test system: H82 (SCLC) cells
ASSAY REMARKS: Inhibition of H82 cells by compounds
Format: cell-based
PARTICULARS: PY-X (DXD) set to 1
MEASURED ATTRIBUTE: IC50 in H82 cells, ratio to DXD

Would you please look over these solved cases?
CC[C@@]1(O)C(=O)OCc2c1cc1n(c2=O)Cc2c-1nc1cc(F)c(C)c3c1c2[C@@H](NC(=O)OCCO)CC3 [PY-4Car] | 0.4523
CC[C@@]1(O)C(=O)OCc2c1cc1n(c2=O)Cc2c-1nc1cc(Cl)c(CO)c3c1c2CCC3 [PY-37] | 1.1563
CC[C@@]1(O)C(=O)OCc2c1cc1n(c2=O)Cc2c-1nc1cc(Cl)c(CN)c3c1c2CCC3 [PY-36] | 1.5585
CC[C@@]1(O)C(=O)OCc2c1cc1n(c2=O)Cc2c-1nc1cc(F)c(CO)c3c1c2CCC3 [PY-10] | 0.1525
CC[C@@]1(O)C(=O)OCc2c1cc1n(c2=O)Cc2c-1nc1cc(F)c(O)c3c1c2CCC3 [PY-13] | 0.1364

// sample CC[C@@]1(O)C(=O)OCc2c1cc1n(c2=O)Cc2c-1nc1cc(F)c(C)c3c1c2[C@@H](NC(=O)OCCCCO)CC3 [PY-4Car2] , its IC50 in H82 cells, ratio to DXD was 0.5803

Item: CC[C@@]1(O)C(=O)OCc2c1cc1n(c2=O)Cc2c-1nc1ccc(CO)c3c1c2CCC3 [PY-37A] | IC50 in H82 cells, ratio to DXD: 0.4153

# IC50 in H82 cells, ratio to DXD (compound: CC[C@@]1(O)C(=O)OCc2c1cc1n(c2=O)Cc2c-1nc1cc(F)c(CN)c3c1c2CCC3 [PY-16] ) is 0.3391

Cited source for all entries: patent US20260199500A1
